Value source: patent US9371320B2

TESTED_ON: JAK1 (Homo sapiens, UniProt P23458)
Construct: purchased Invitrogen
Sequence (P23458 whole entry): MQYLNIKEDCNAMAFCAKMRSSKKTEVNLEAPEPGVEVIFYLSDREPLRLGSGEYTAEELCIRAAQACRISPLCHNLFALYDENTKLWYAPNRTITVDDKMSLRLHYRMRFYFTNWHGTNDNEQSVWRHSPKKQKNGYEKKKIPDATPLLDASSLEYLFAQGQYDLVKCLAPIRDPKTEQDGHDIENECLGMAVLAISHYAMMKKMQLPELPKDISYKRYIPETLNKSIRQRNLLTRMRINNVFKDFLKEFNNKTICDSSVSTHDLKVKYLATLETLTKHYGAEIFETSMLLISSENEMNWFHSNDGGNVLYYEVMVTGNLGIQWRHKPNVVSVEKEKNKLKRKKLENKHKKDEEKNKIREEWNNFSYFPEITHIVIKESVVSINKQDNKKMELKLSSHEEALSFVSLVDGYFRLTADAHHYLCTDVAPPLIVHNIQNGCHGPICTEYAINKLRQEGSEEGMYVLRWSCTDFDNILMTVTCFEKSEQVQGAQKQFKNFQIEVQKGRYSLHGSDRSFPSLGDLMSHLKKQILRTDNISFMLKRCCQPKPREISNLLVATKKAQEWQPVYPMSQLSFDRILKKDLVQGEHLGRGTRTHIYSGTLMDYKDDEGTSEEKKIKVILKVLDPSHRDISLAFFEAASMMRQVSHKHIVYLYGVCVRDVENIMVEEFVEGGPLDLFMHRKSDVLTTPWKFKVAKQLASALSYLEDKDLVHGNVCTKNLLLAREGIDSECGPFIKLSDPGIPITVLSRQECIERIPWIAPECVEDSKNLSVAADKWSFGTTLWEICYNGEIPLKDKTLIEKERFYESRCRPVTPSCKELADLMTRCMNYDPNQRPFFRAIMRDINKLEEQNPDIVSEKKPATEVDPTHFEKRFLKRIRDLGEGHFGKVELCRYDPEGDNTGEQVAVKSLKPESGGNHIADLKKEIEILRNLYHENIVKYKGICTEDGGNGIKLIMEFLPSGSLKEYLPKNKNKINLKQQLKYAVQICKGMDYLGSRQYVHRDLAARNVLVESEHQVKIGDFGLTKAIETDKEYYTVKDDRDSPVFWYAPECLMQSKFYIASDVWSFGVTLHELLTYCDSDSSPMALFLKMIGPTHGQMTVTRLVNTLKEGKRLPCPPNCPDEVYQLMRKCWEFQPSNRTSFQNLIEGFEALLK
TEST_DETAILS: JAK1 enzyme inhibition test (LANCE method)
Type: biochemical
TEST_PARAMETERS: test compound 1 μM; read-out: Inhibitory rate (%) JAK1 1 μM
Experimental: JAK1 Enzyme Inhibition Test JAK1 enzyme inhibitory activity of test compounds was measured by LANCE method (PerkinElmer). First, a test compound diluted with assay buffer (50 mM HEPES (pH=7.5), 10 mM MgCl2, 1 mM EGTA, 2 mM DTT, 0.01% Tween20, 0.01% BSA) was added to 384-well plate at 2 μL each. Then, a JAK1 (Invitrogen) solution and a fluorescence-labeled peptide substrate (ULight-JAK1, PerkinElmer) solution diluted with assay buffer at 187.5 ng/mL and 300 nM, respectively were added at 2 μL each. […]
Label no (0) if inhibition at 1 µM falls below 80%; label yes (1) in every other case.

MOLECULE	ASSIGNED_CATEGORY
Cn1cnc2cc(-c3nn(-c4c(F)cccc4F)c4c(Cl)c[nH]c(=O)c34)ccc21	no (0)
NS(=O)(=O)c1ccc(-c2nn(C3CCC(O)CC3)c3cc[nH]c(=O)c23)cc1 (centres unmarked)	yes (1)
CNC(=O)c1ccc(-c2nn(-c3c(F)cccc3C#N)c3cc[nH]c(=O)c23)cc1	yes (1)
N#Cc1c[nH]c(=O)c2c(-c3csc(C(=O)O)c3)cn(C3CCCC3)c12	yes (1)
NS(=O)(=O)c1cccc(-c2nn(C3CCCC3)c3cc[nH]c(=O)c23)c1	yes (1)
NC(=O)c1cccc(-c2nn(-c3c(F)cccc3F)c3c(Cl)c[nH]c(=O)c23)c1	no (0)

INPUT: Is it the case that NS(=O)(=O)c1cccc(Nc2nn(C3CCCC3)c3c(Br)c[nH]c(=O)c23)c1 has inhibition at 1 µM reaching or exceeding 80%?
OUTPUT: no (0)
